TARGET_DESC: T1, native PRLR expressing T47D cells (Homo sapiens, UniProt P16471)
T1 construct: a native PRLR expressing cell line (T47D); endogenous in cells; host or cells: T47D
T1 sequence (P16471 25-622): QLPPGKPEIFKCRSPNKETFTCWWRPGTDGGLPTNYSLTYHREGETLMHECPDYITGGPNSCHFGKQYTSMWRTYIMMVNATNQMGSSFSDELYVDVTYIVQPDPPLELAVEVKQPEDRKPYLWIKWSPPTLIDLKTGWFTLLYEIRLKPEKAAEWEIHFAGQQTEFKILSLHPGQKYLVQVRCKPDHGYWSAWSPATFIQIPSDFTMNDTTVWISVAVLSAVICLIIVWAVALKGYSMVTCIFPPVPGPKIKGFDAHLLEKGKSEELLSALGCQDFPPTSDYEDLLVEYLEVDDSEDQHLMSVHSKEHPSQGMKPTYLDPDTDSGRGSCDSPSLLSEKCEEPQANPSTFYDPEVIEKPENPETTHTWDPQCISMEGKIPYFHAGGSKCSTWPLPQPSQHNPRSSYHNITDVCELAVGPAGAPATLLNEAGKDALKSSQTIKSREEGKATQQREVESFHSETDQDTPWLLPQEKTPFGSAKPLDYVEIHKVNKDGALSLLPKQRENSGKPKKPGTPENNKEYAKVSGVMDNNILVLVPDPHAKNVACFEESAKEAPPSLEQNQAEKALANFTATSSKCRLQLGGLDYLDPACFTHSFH
TEST_NAME: FACS cell surface binding
VALUE_KIND: FACS Cell Binding (Fold Above Background)
// note: answer is a bare numeric in Fold Above Background

MOLECULE | RECORDED_VALUE
H1H6960N: anti-PRLR antibody, human IgG1 Fc form of H2M6960N of Table 1; HCVR/LCVR SEQ ID NOs 322/330 (antibody, V domains shown, human IgG1 Fc) VH: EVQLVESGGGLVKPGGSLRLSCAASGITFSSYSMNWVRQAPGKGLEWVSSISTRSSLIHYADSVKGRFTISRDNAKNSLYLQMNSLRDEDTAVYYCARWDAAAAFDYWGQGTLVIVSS VL: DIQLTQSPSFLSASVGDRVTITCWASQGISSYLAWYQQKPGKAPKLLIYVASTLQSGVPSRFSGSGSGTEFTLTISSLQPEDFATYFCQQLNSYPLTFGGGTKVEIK | 33

Summary for this molecule, H1H6795P: fully human anti-PRLR antibody, human IgG1 Fc; HCVR/LCVR SEQ ID NOs 162/170 (antibody, V domains shown) VH: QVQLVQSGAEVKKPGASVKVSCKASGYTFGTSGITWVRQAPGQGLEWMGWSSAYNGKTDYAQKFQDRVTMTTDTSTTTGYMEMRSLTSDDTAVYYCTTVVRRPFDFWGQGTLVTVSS VL: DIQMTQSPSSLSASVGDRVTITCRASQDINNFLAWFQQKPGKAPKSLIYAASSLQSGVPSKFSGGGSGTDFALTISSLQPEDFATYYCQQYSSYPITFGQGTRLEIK : FACS Cell Binding is 34

Data provenance is patent US10925971B2.
